These entries and their values trace back to patent US11267808B2.

Item-by-item account of IC50
Biological target: Human PPAR-gamma (Homo sapiens (Human))
Experiment: Human PPAR-gamma (h) (agonist radioligand) binding assay
Conditions: inhibition of radioligand specific binding; class ranges defined in μM

Worked cases, answers included:
N#Cc1ccc(Cl)c(C(=O)Nc2ccc(-c3cccnc3)nc2)c1; < 0.2 µM
N#Cc1ccc(F)c(C(=O)Nc2ccc(-c3cccnc3)nc2)c1; < 0.2 µM
CN1CCN(c2cc(NC(=O)c3cc(C#N)ccc3Cl)ccn2)CC1; ≥ 50 µM
N#Cc1ccc(F)c(C(=O)Nc2ccc(-c3ccc(F)cc3)nc2)c1; < 0.2 µM
N#Cc1ccc(Cl)c(C(=O)Nc2ccnc(-c3cccnc3)c2)c1; 1 to 50 µM

With those in mind, consider the next compound.
**Q:** Request body: readout IC50, system Human PPAR-gamma (Homo sapiens (Human)), query `N#Cc1ccc(Cl)c(C(=O)Nc2ccc(-c3ccccn3)nc2)c1` . Return the value.
**A:** < 0.2 µM

###

Target: Human PPAR-gamma (Homo sapiens (Human), UniProt P37231)
Sequence (P37231 whole entry): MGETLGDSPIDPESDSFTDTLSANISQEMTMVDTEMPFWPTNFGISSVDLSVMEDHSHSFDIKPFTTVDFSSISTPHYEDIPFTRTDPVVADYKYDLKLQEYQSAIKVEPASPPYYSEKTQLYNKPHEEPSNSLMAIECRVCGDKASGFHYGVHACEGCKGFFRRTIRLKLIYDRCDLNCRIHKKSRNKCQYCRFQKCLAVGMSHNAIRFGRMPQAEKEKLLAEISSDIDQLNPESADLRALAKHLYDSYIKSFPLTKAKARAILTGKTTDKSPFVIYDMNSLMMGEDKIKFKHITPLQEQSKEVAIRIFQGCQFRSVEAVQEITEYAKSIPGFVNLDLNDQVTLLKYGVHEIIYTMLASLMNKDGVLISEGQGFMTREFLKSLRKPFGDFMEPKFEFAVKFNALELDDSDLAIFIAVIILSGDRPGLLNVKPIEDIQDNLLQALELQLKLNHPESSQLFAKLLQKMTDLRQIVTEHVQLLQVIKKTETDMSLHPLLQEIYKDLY
Assay: Human PPAR-gamma (h) (agonist radioligand) binding assay
Details: inhibition of radioligand specific binding; class ranges defined in μM
Quick reference: IC50 of the listed items.

Example cases with answers are listed next.
N#Cc1ccc(Cl)c(C(=O)Nc2ccnc(-c3ccc(F)cc3)c2)c1 [Example 3]; 0.2 to 1 µM
CN1CCN(c2ccc(NC(=O)c3cc(C#N)ccc3Cl)cn2)CC1 [Example 14]; 1 to 50 µM
N#Cc1ccc(Cl)c(C(=O)Nc2ccc(N3CCOCC3)nc2)c1 [Example 17]; 1 to 50 µM

**Q:** Entry N#Cc1ccc(Cl)c(C(=O)Nc2ccc(-c3ccccc3)nc2)c1 [Example 2] has what IC50?
**A:** < 0.2 µM

**Q:** Then this compound: N#Cc1ccc(Cl)c(C(=O)Nc2ccc(-c3ccncc3)nc2)c1 [Example 7]
**A:** 1 to 50 µM

**Q:** Entry to check: N#Cc1ccc(Cl)c(C(=O)Nc2ccnc(N3CCOCC3)c2)c1 [Example 16]
**A:** 1 to 50 µM

**Q:** Now the same for N#Cc1ccc(Cl)c(C(=O)Nc2ccnc(-c3ccccc3)c2)c1 [Example 1]
**A:** < 0.2 µM

**Q:** Same read-out for N#Cc1ccc(Cl)c(C(=O)Nc2ccc(-c3ccc(F)cc3)nc2)c1 [Example 4] ?
**A:** < 0.2 µM
